System: Setaria viridis
test.description: greenhouse post-emergence herbicidal test, green foxtail
Assay type: in vivo
experimental.context: application rate 0.5 kg/ha a.s., 2 to 4 weeks

molecule	post-emergence control of green foxtail
CNC(=O)C(NC(=O)c1cn(C)nc1C(F)(F)F)C(OC(C)=O)c1nccs1 (mixture of isomers)	very good
CNC(=O)C(NC(=O)c1cn(C)nc1C(F)(F)F)C(OC(=O)N(C)C)c1cccs1 (mixture of isomers)	very good
CNC(=O)C(NC(=O)c1cn(C)nc1C(F)(F)F)C(OC(C)=O)c1ccn[nH]1 (mixture of isomers)	very good
CNC(=O)C(NC(=O)c1cn(C)nc1C(F)(F)F)C(O)c1cccc(C)n1 (racemic)	very good

----------
System: Amaranthus retroflexus
test.description: greenhouse post-emergence herbicidal test, pig weed
Type: in vivo
experimental.context: application rate 1.0 kg/ha a.s., 2 to 4 weeks
endpoint: post-emergence action against pig weed

// below: answered compounds
compound	tested.on	observed.measurement
CNC(=O)C(NC(=O)c1cn(C)nc1C(F)(F)F)C(O)c1ccn[nH]1 (mixture of isomers)	Amaranthus retroflexus	very good
CNC(=O)C(NC(=O)c1cn(C)nc1C(F)(F)F)C(O)c1ccn(C)n1 (racemic)	Amaranthus retroflexus	very good
CNC(=O)C(NC(=O)c1cn(C)nc1C(F)(F)F)C(O)c1cccs1 (mixture of isomers)	Amaranthus retroflexus	very good
CNC(=O)C(NC(=O)c1cn(C)nc1C(F)(F)F)C(O)c1nccs1 (mixture of isomers) [Compound 3.51]	Amaranthus retroflexus	very good
CNC(=O)C(NC(=O)c1cn(C)nc1C(F)(F)F)C(OC(=O)N(C)C)c1nccs1 (mixture of isomers) [Compound 3.57]	Amaranthus retroflexus	very good
CNC(=O)C(NC(=O)c1cn(C)nc1C(F)(F)F)C(OC(=O)N(C)C)c1nccs1 (mixture of isomers) [Compound 3.59]	Amaranthus retroflexus	very good
CNC(=O)C(NC(=O)c1cn(C)nc1C(F)(F)F)C(O)c1ccccn1 (racemic)	Amaranthus retroflexus	very good

Shifting focus to the compound that follows.
Lookup: Bench note: what post-emergence action against pig weed did CNC(=O)C(NC(=O)c1cn(C)nc1C(F)(F)F)C(O)c1nccs1 (mixture of isomers) [Compound 3.52] show?
Found: very good
